Recorded inhibition by entry
Biological target: Cystic fibrosis transmembrane conductance regulator (Homo sapiens) (UniProt P13569)
Sequence (P13569 whole entry, looked up): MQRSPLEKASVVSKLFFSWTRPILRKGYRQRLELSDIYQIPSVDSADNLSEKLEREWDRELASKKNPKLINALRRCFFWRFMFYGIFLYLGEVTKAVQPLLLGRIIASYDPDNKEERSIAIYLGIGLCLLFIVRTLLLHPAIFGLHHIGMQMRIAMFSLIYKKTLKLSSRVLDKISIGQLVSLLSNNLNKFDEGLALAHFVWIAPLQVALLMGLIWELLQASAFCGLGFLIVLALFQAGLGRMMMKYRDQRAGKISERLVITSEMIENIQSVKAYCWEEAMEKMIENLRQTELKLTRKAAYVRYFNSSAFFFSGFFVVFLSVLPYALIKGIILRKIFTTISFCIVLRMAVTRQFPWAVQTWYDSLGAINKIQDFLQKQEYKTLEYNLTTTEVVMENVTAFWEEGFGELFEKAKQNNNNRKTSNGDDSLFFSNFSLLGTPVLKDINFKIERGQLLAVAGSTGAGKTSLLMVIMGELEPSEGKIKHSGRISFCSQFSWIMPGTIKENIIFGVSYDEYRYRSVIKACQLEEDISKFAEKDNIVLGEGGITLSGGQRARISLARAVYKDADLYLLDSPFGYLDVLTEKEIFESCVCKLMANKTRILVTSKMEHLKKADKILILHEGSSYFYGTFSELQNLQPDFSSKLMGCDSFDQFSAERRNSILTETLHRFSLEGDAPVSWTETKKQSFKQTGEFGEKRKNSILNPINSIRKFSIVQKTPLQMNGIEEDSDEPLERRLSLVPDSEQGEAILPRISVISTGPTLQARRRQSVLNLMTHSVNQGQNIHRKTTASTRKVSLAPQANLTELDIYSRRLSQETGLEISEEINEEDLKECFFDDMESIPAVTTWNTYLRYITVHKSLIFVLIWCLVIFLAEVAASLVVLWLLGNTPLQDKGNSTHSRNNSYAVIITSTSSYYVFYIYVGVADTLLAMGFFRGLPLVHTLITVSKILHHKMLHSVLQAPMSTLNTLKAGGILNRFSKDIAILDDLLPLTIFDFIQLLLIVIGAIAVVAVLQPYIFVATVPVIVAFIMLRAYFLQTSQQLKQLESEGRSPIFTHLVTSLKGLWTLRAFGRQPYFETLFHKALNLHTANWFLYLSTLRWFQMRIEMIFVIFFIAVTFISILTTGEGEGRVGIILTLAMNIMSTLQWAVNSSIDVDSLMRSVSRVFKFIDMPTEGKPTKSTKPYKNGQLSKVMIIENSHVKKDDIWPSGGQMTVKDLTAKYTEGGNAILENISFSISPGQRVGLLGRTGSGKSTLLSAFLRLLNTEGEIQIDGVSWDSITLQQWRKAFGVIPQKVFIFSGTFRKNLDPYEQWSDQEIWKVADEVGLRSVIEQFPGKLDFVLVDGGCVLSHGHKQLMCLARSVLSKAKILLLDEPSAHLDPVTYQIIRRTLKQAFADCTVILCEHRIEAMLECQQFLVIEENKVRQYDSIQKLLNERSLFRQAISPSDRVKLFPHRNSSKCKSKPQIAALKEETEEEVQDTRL
Assay: Inhibition of CFTR in human HT-29 cells assessed as effect on intracellular chloride efflux at 20 uM relative to control
Assay type: cell-based
EXPERIMENTAL_ENDPOINT: inhibition (%)

{"columns": ["SMILES_STR", "EXPERIMENTAL_ENDPOINT", "ENDPOINT_UNIT", "QUAL", "REPORTED"],
 "data": [
  ["O=C(O)c1ccc(/C=C2\\SC(=O)N(Cc3cccc(C(F)(F)F)c3)C2=O)cc1", "inhibition", "%", "=", 23],
  ["O=C(O)c1ccc(/C=C2\\SC(=S)N(CCc3cccc(C(F)(F)F)c3)C2=O)cc1", "inhibition", "%", ">", 10],
  ["CN1CCN(C(=O)c2ccc(/C=C3\\SC(=S)N(c4cccc(C(F)(F)F)c4)C3=O)cc2)CC1", "inhibition", "%", "=", 77],
  ["O=C(c1ccc(/C=C2\\SC(=S)N(c3cccc(C(F)(F)F)c3)C2=O)cc1)N1CCOCC1", "inhibition", "%", "=", 74],
  ["O=C1/C(=C/c2ccc(-c3nnn[nH]3)cc2)SC(=S)N1CCCc1cccc(C(F)(F)F)c1", "inhibition", "%", ">", 10],
  ["O=C(c1ccc(/C=C2\\SC(=S)N(c3cccc(OC(F)(F)F)c3)C2=O)cc1)N1CCOCC1", "inhibition", "%", "=", 68],
  ["O=C(O)c1ccc(/C=C2\\SC(=S)N(c3cccc(C(F)(F)F)c3)C2=O)cc1", "inhibition", "%", "=", 86],
  ["O=C(O)c1ccc(/C=C2\\SC(=S)N(Cc3ccc(-c4ccccc4)cc3)C2=O)cc1", "inhibition", "%", "=", 11],
  ["CN1CCN(C(=O)c2ccc(/C=C3\\SC(=S)N(c4cccc([N+](=O)[O-])c4)C3=O)cc2)CC1", "inhibition", "%", "=", 66]
]}
